target: HLA-A*3301 (Homo sapiens, UniProt P04439, A270S/D185E/E176V/E277Q/E87N/F33T/G231S/H175R/I121M/I218V/I322F/K168Q/K210R/L300P/L318F/M331R/P217A/Q86R/Q94H/R138Q/T323A/T345S/T97I/V358M/Y195H); conditions: Table XXIII, HLA-A3 supermotif-bearing peptides
Metric Name: IC50 (nM)
Note: unit nM is implicit; provide only the numeric part.

Completed entries (count: 3):
- Chem Smiles: "CC[C@H](C)[C@H](N)C(=O)N[C@@H](CC(C)C)C(=O)N[C@@H](CCCCN)C(=O)NCC(=O)NCC(=O)N[C@H](C(=O)N[C@@H](CC(C)C)C(=O)N[C@H](C(=O)N[C@@H](CCC(N)=O)C(=O)N[C@@H](CCCNC(=N)N)C(=O)O)[C@@H](C)CC)C(C)C"
  Recorded Measurement: 121
- Chem Smiles: "CC[C@H](C)[C@H](N)C(=O)N[C@H](C(=O)N[C@@H](Cc1c[nH]c2ccccc12)C(=O)N[C@@H](CC(C)C)C(=O)NCC(=O)N[C@@H](CC(C)C)C(=O)N[C@@H](CCCNC(=N)N)C(=O)N[C@@H](CO)C(=O)N[C@@H](CC(C)C)C(=O)N[C@@H](CCCCN)C(=O)O)C(C)C"
  Recorded Measurement: 2070
- Chem Smiles: "CC[C@H](C)[C@H](N)C(=O)N[C@H](C(=O)N[C@@H](Cc1c[nH]c2ccccc12)C(=O)N[C@@H](CCCCN)C(=O)N[C@@H](CC(=O)O)C(=O)N[C@H](C(=O)N[C@@H](Cc1ccccc1)C(=O)N[C@@H](Cc1c[nH]cn1)C(=O)N[C@@H](CCCNC(=N)N)C(=O)O)[C@@H](C)CC)C(C)C"
  Recorded Measurement: 16

[in] Look up and report measured IC50 for this entry: CC[C@H](C)[C@H](N)C(=O)N[C@H](C(=O)N[C@@H](Cc1c[nH]c2ccccc12)C(=O)N[C@@H](CCCCN)C(=O)N[C@@H](CC(=O)O)C(=O)N[C@H](C(=O)N[C@@H](Cc1ccccc1)C(=O)N[C@@H](Cc1c[nH]cn1)C(=O)N[C@@H](CCCCN)C(=O)O)[C@@H](C)CC)C(C)C
[out] 853

[in] Look up and report measured IC50 for this entry: CC[C@H](C)[C@H](N)C(=O)N[C@H](C(=O)N[C@@H](Cc1c[nH]c2ccccc12)C(=O)N[C@@H](CC(C)C)C(=O)NCC(=O)N[C@@H](CC(C)C)C(=O)N[C@@H](CCCNC(=N)N)C(=O)N[C@@H](CO)C(=O)N[C@@H](CC(C)C)C(=O)N[C@@H](CCCNC(=N)N)C(=O)O)C(C)C
[out] 193
